Molecular target: T1, TO-ZF (thiazole orange-GR zinc finger conjugate) (UniProt P06536 SEQ:1-28)
T1 chain: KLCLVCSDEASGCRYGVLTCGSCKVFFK
Test: TO fluorescence titration; two base changes vs GRE
Details: protein: synthetic; tags: thiazole orange on Lys epsilon-amine (first residue coupled to resin); synthetic solid-phase peptide (text states 29 aa, listing 28 aa), Zn-loaded
metric_name: Kd (nM)
Entry rule: numbers only, all in nM.

Could you share which Kd value was measured for ERE (dsDNA) DNA 1: TCATACATCTAACTGACCTATCA DNA 2: TGATAGGTCAGTTAGATGTATGA ?
810
